All values here come from paper PMC9405596.

- Test system: L. mexicana promastigotes
- Measurement description: MTT viability assay against L. mexicana promastigotes
- Assay type: cell-based, Leishmania mexicana
- Condition details: Leishmania mexicana, 48 h, read-out: L. mexicana Promastigote IC50, promastigotes, 48 h, MTT
We begin with a simple list: items and their reported IC50.
Report as a plain number; the unit µM is understood.

Sample records with IC50:
- Compound: "COc1ccccc1C(c1c(C)nn(-c2ccccc2)c1O)c1c(C)nn(-c2ccccc2)c1O [Compound 2f]"
  IC50, µM: 22
- Compound: "Cc1nn(-c2ccccc2)c(O)c1C(c1cccc(O)c1)c1c(C)nn(-c2ccccc2)c1O [Compound 2l]"
  IC50, µM: 18
- Compound: "COc1ccc(C(c2c(C)nn(-c3ccccc3)c2O)c2c(C)nn(-c3ccccc3)c2O)cc1O [Compound 2j]"
  IC50, µM: 10
- Compound: "Cc1nn(-c2ccccc2)c(O)c1C(c1ccc(O)c(O)c1)c1c(C)nn(-c2ccccc2)c1O [Compound 2n]"
  IC50, µM: 7

Please find the next compound below.
# input Look up IC50: Cc1nn(-c2ccccc2)c(O)c1C(c1ccccc1O)c1c(C)nn(-c2ccccc2)c1O [Compound 2a]
# output 12

----------
- System: L. mexicana promastigotes
- Measurement description: MTT viability assay against L. mexicana promastigotes
- Type: cell-based, Leishmania mexicana
- Condition details: Leishmania mexicana, 48 h, read-out: L. mexicana Promastigote IC50, promastigotes, 48 h, MTT
Assay readout: IC50

Sample records with IC50:
- Compound: "Cc1nn(-c2ccccc2)c(O)c1C(c1ccc([N+](=O)[O-])cc1)c1c(C)nn(-c2ccccc2)c1O [Compound 2k]"
  IC50: "≤ 10 µM"
- Compound: "COc1ccc(C(c2c(C)nn(-c3ccccc3)c2O)c2c(C)nn(-c3ccccc3)c2O)cc1 [Compound 2e]"
  IC50: "> 50 µM"

Please find the next compound below.
# input Item Cc1nn(-c2ccccc2)c(O)c1C(c1ccc(O)cc1O)c1c(C)nn(-c2ccccc2)c1O [Compound 2y] with L. mexicana promastigotes - IC50?
# output > 50 µM
